# Tested on: CAKI-1
# PROTOCOL TEXT: NCI tumour cell line growth inhibition, 48 h
The source made the active and inactive calls. Cut-off read from the data, not from the text of the source: active = GI50 up to about 1.1 µM and inactive = higher.
Can you answer with just one of these options? T (active), F (inactive)

| MOLECULE | CLASS |
| --- | --- |
| NCCOc1cccc(C2(N3CCCCC3)CCCCC2)c1 | F |
| CC(C)(C)OC(=O)NC(Cc1ccccc1)NC(=O)NC(=O)OCc1ccccc1 (configuration not stated) | F |
| CN1CCC(O)(OC(=O)C(c2ccccc2)C2(O)CCCC2)CC1 (configuration not stated) | F |
| CCCCCCCCCCCCCCCCCC(=O)Nc1ccn(C2CCC(COP(=O)(O)O)O2)c(=O)n1 (configuration not stated) | F |
| CN(C)CCNc1ccc([N+](=O)[O-])c2nc3ccccc3c(N)c12 | F |

Q: Kindly provide the recorded test outcome for the following molecule: Brc1cc2nn(-c3ccccc3)nc2c2nonc12
A: F

* * *

Each entry below carries its reported GI50.
# Tested on: SNB-19
# PROTOCOL TEXT: NCI tumour cell line growth inhibition, 48 h
The source made the active and inactive calls. Cut-off read from the data, not from the text of the source: active = GI50 up to about 1.1 µM and inactive = higher.

Illustrative cases are given below, each with its answer.
| COMPOUND | GI50 |
| --- | --- |
| COc1ccc(-c2nnc(-c3ccncc3)o2)cc1 | 78.7 µM (inactive) |
| C[C@@H]1CCC[C@]2(C)O[C@H]2CC[C@@](C)(O)[C@@H]2CC3=C(CO)C(=O)O[C@H]3[C@H]1O2 | > 50 µM (inactive) |
| Nc1ccc2c(SCCSc3c4ccccc4nc4cc(N)ccc34)c3ccccc3nc2c1 | > 100 µM (inactive) |

Q: Report measured GI50 on SNB-19; entry: CC1OC(OCC2COC(O)(Oc3c(-c4ccc(O)c(O)c4)oc4cc(O)cc(O)c4c3=O)C(O)C2O)C(O)C(O)C1O (stereo unspecified)
A: > 100 µM (inactive)

Q: Report measured GI50 on SNB-19; entry: Cc1cc2c(cc1C)C(=O)C1(C2)Cc2c(ccc(C)c2C)C1=O (stereo unspecified)
A: > 100 µM (inactive)

Q: Report measured GI50 on SNB-19; entry: COCCOCOc1ccc(OCc2ccccc2)cc1
A: > 100 µM (inactive)

* * *

Each entry below carries its reported GI50.
# Tested on: SF-268
# PROTOCOL TEXT: NCI tumour cell line growth inhibition, 48 h
Activity calls are given as the source filed them. Cut-off read from the data, not from the text of the source: active = GI50 up to about 1.1 µM and inactive = higher.

Illustrative cases are given below, each with its answer.
| COMPOUND | ATTRIBUTE MEASURED | VALUE OBSERVED |
| --- | --- | --- |
| Nc1c(C(=O)O)nnc2cc(Cl)ccc12 | GI50 | > 100 µM (inactive) |
| Cc1cc2cc3ccccc3cc2c(=O)[nH]1 | GI50 | > 10 µM (inactive) |
| CCCN1CC=C(c2cc(C(=O)OCC)[nH]c2-c2cc(C)no2)C1=O | GI50 | > 100 µM (inactive) |
| CC(NCc1c(O)ccc2c(-c3ccccc3)cc(=O)oc12)C(=O)O (stereo not given) | GI50 | > 100 µM (inactive) |

Q: Determine from records and report GI50 for COC(=O)C1Cc2c([nH]c3ccccc23)[C@H](CC(C)C)N1 (stereo not given in full)
A: > 100 µM (inactive)

* * *

# System: UO-31
# PROTOCOL TEXT: NCI tumour cell line growth inhibition, 48 h
The source made the active and inactive calls. Rule as the data show it: active = GI50 up to about 1.1 µM and inactive = higher.
Can you answer with just one of these options? active, inactive

Some solved entries appear below for comparison.
| COMPOUND | CLASS |
| --- | --- |
| COc1ccc(NC(=O)C2C(=O)N(c3ccc(OC)cc3)C(=O)/C2=N/O)cc1 (stereo not drawn) | inactive |
| Brc1cc2nn(-c3ccccc3)nc2c2nonc12 | inactive |
| CC1CCC2(NC1)OC1CC3[C@@H]4CC=C5C=CCC[C@]5(C)C4CC[C@]3(C)C1C2C (stereo partly drawn) | inactive |
| CCc1ccccc1NC(=O)C1=C(C)NC(C)=C(C(=O)Nc2ccccc2CC)C1c1cccc([N+](=O)[O-])c1 | inactive |
| CCCCCC(=O)N[C@H]1CCc2cc(O)c(O)c(O)c2-c2ccc(SC)c(=O)cc21 | inactive |
| O=C(NO)c1coc2ccccc2c1=O | inactive |

Q: Kindly provide the recorded test outcome for the following compound: c1ccc(COc2ccc3[nH]c4c5c6ccccc6nc-5c[nH]c4c3c2)cc1
A: inactive

Q: Kindly provide the recorded test outcome for the following compound: CC(=O)c1ccc(Nc2nc3ccccc3c3occc23)cc1
A: inactive

Q: Kindly provide the recorded test outcome for the following compound: Nc1nc(N)c2c(-c3ccccc3)ccnc2n1
A: inactive

* * *

# System: SF-295
# PROTOCOL TEXT: NCI tumour cell line growth inhibition, 48 h
Active and inactive are the calls of the source. Rule as the data show it: active = GI50 up to about 1.1 µM and inactive = higher.
Can you answer with just one of these options? active, inactive

| COMPOUND | CLASS |
| --- | --- |
| COc1cc(OC)cc(C(=O)NC2=C(Cl)C(=O)c3ccccc3C2=O)c1 | inactive |
| NCCc1ccc(S(=O)(=O)O)cc1[N+](=O)[O-] | inactive |

Q: Kindly provide the recorded test outcome for the following compound: Cc1ccccc1-c1nc2c(C(=O)NCCN(C)C)cccc2[nH]1
A: inactive

Q: Kindly provide the recorded test outcome for the following compound: Cc1cc(O)nc(NN2C(Cl)C(=O)C2c2ccc(O)cc2)n1 (centres undefined)
A: inactive

Q: Kindly provide the recorded test outcome for the following compound: c1ccc(CCN2CCOCC2)nc1
A: inactive

Q: Kindly provide the recorded test outcome for the following compound: O=c1oc2ccc3ccccc3c2cc1-c1cn2ccccc2n1
A: inactive

Q: Kindly provide the recorded test outcome for the following compound: O=C1c2ccccc2C(=O)c2c1nc1ccccc1c2-c1cncc(-c2c3c(nc4ccccc24)C(=O)c2ccccc2C3=O)c1
A: inactive

* * *

Each entry below carries its reported GI50.
# System: SK-MEL-2
# PROTOCOL TEXT: NCI tumour cell line growth inhibition, 48 h
Calls of active or inactive are those of the source. Cut-off read from the data, not from the text of the source: active = GI50 up to about 1.1 µM and inactive = higher.

Illustrative cases are given below, each with its answer.
| COMPOUND | TARGET UNDER TEST | GI50 |
| --- | --- | --- |
| NCCOc1cccc(C2(N3CCCCC3)CCCCC2)c1 | SK-MEL-2 | 21.8 µM (inactive) |
| Cc1cc(Br)ccc1/N=N/C1C(=O)ON=C1c1ccccc1 (stereo not given) | SK-MEL-2 | > 100 µM (inactive) |
| c1ccc2c(c1)nc1n2C2CCC(C2)N1 (stereo not given) | SK-MEL-2 | > 10 µM (inactive) |
| N#Cc1ccc2oc3ccc(C#N)cc3c(=O)c2c1 | SK-MEL-2 | 19.6 µM (inactive) |

Q: Determine from records and report GI50 for O=[N+]([O-])c1ccc(-c2ccc(C3=Nn4c(CNc5ccccc5Cl)nnc4SC3)o2)cc1
A: > 100 µM (inactive)

* * *

# Tested on: NCI-H226
# PROTOCOL TEXT: NCI tumour cell line growth inhibition, 48 h
Activity calls are given as the source filed them. Rule as the data show it: active = GI50 up to about 1.1 µM and inactive = higher.
ATTRIBUTE MEASURED: GI50

| COMPOUND | TARGET UNDER TEST | GI50 |
| --- | --- | --- |
| Cn1nc2ccc3nccc(NCCNCCO)c3c2n1 | NCI-H226 | 41.2 µM (inactive) |
| c1ccc(CCN2CCOCC2)nc1 | NCI-H226 | > 100 µM (inactive) |
| Nc1nc(N)c2c(-c3ccccc3)ccnc2n1 | NCI-H226 | 40.4 µM (inactive) |
| COc1c2c(cc3c1C(=O)c1c(O)cccc1C3=O)CC(O)CC2 (centres undefined) | NCI-H226 | 54.5 µM (inactive) |
| c1ccc2c(c1)CCN1CCc3ccccc3C1C2 (centres undefined) | NCI-H226 | 23.6 µM (inactive) |
| Cc1cccc(C(C)C)c1NC(=O)CCl | NCI-H226 | > 100 µM (inactive) |
| Cc1ccnc2nc(-c3cccc(Cl)c3)cc(O)c12 | NCI-H226 | 3.4 µM (inactive) |
| N#Cc1ccc2oc3ccc(C#N)cc3c(=O)c2c1 | NCI-H226 | 35.9 µM (inactive) |

Shift focus to the following entry.
Q: Determine from records and report GI50 for Cn1c(=O)cc(NCCc2ccccc2)[nH]c1=O
A: > 100 µM (inactive)

* * *

Each entry below carries its reported GI50.
# Test system: CAKI-1
# PROTOCOL TEXT: NCI tumour cell line growth inhibition, 48 h
Calls of active or inactive are those of the source. Rule as the data show it: active = GI50 up to about 1.1 µM and inactive = higher.

| COMPOUND | GI50 |
| --- | --- |
| C(=C\C(Sc1ccccc1)c1ccccc1)/NNC1=NN=C(c2ccccc2)C(c2ccccc2)N1 (centres undefined) | 24.8 µM (inactive) |
| CN(C)C(n1cc2c(c1)-c1ccc(Cl)cc1C(c1ccccc1F)=NC2)n1cc2c(c1)-c1ccc(Cl)cc1C(c1ccccc1F)=NC2 | > 100 µM (inactive) |
| C=C(c1ccccc1)c1cc2c(=O)[nH]ccc2n1C | 33.2 µM (inactive) |

Q: Determine from records and report GI50 for CC1OC(OCC2COC(O)(Oc3c(-c4ccc(O)c(O)c4)oc4cc(O)cc(O)c4c3=O)C(O)C2O)C(O)C(O)C1O (centres undefined)
A: > 100 µM (inactive)
